Values compiled from PubChem BioAssay (NCI).

system: HOP-62 NSCLC; experiment: NCI tumour cell line growth inhibition, 48 h; in the data active = GI50 below about 0.43 µM; inactive = the rest
Thanks in advance; please answer with one of these: active, inactive

As a guide, the following entries are already answered.
Compound	Assay Target	Label
CS(=O)(=O)Nc1cc(-c2ccc3ncc(C#N)c(Nc4ccc(F)c(Cl)c4)c3c2)cnc1Cl	HOP-62 NSCLC	active
COc1ccc(OC)c(C2=C(c3cn(C)c4ccccc34)C(=O)NC2=O)c1	HOP-62 NSCLC	inactive
Cc1ccc2ncnc(N(C)C3CCCCC3)c2c1	HOP-62 NSCLC	inactive
Cn1cc(-c2csc(-c3ccccc3)n2)c2cccnc21	HOP-62 NSCLC	inactive
CCCCCOC(=O)Nc1nc(=O)n(C2OC(C)C(O)C2O)cc1F (stereo not given)	HOP-62 NSCLC	inactive
Cn1c2c(c3ccccc31)CCN1C[C@@H]3CCCC[C@H]3C[C@@H]21	HOP-62 NSCLC	inactive

Entry N#CC1=C(N)N=C(N2CCOCC2)C(C#N)C12Nc1ccccc1S2 (stereo not given) : call = ?
inactive

Entry Cc1cc(S(=O)(=O)Nc2nc3ccccc3c(=O)n2Cc2ccco2)c(S)cc1Cl please
inactive

Try this compound too: CC(=O)[O-].CC(=O)[O-].O=C([CH-]C(=O)c1ccccc1)c1ccccc1.[Nd+3].[OH3+]
inactive

Would you mind doing CCOC(=O)c1c(C)n([O-])c2cc(F)c(F)cc2[n+]1=O as well?
inactive

---

system: OVCAR-3 ovarian; assay: NCI tumour cell line growth inhibition, 48 h
# TGI annotations

Example cases with answers are listed next.
Compound	Result
CN(C)c1n2c3ccc([N+](=O)[O-])cc3n3c(N(C)C)[n+]4ccccc4c3c2c2cccc[n+]12	> 100 µM
COc1ccc2c(O)c1-c1c(OC)ccc(c1O)SSc1ccc(OC)c(c1O)-c1c(OC)ccc(c1O)SS2	> 100 µM

I would be grateful if you could share the reported TGI for CCOC(=O)c1sc2nc(SC)nc3c2c1NC(=O)CN3c1ccc(F)cc1 .
> 100 µM

---

system: OVCAR-4 ovarian; test: NCI tumour cell line growth inhibition, 48 h
Recorded Endpoint: TGI (µM)
API: value field is a number in µM; no unit string.

Sample records with TGI:
Molecule	TGI / µM
CCOC(=O)c1c(C)n([O-])c2cc(F)c(F)cc2[n+]1=O	3.92
CNC(=O)/C=C/C1=CN2C(=O)c3ccc(C)c(O)c3NC(OC)C2C1 (stereo unspecified)	0.0244

Proceeding to the next molecule to report its TGI.
Recorded TGI for C=C(C(=O)c1ccccc1)C(NC(C)(C)C)c1ccccc1 (stereo unspecified) , please?
17.1

---

system: SF-539 CNS; assay: NCI tumour cell line growth inhibition, 48 h
// reported log10 of TGI for each item listed
All values: base-10 log of TGI in µM.

Would you please look over these solved cases?
Compound	Assay Target	Recorded Endpoint	Number
COc1ccccc1/C=C1\CCC(Cc2ccccc2)(CN(C)C)C1=O (stereo unspecified)	SF-539 CNS	log10 of TGI	0.77
O=c1cccccc1[O-].O=c1cccccc1[O-].O=c1cccccc1[O-].[Nd+3]	SF-539 CNS	log10 of TGI	1.87
CC1=CC2(C)C=C[C@@H]1C(=O)[C@@]1(C)CC[C@@](O)(C(C)C)[C@H]1CC2	SF-539 CNS	log10 of TGI	1.54

Entry under review: CCCCCCCCCCCCCCCCCCN(C)CC(COC)OP(=O)([O-])OCC[N+](C)(C)C (stereo unspecified) . Reported log10 of TGI?
1.11

Try this compound next: Cc1[nH]c(C(=O)Nc2cccc(OC3CCNCC3)c2)c(Cl)c1Cl
0.49

Now try CC(C)(C)N1CC1CNC(=O)C(=O)NCC1CN1C(C)(C)C (stereo unspecified) .
1.14

Also CC(=O)NC1C(OCc2ccccc2)OC(CO)C(O)C1OCC(=O)NC(C(=O)NC(CCC(=O)NCCCCCC(=O)Nc1ccc2c(c1)CN1C(=O)c3ccccc3C1=N2)C(N)=O)C(C)C (stereo unspecified) ?
1.58

Now consider COc1cccc2nc(Nc3cccc(NC(=O)c4ccc(N5CCN(C)CC5)c(C(F)(F)F)c4)c3)ccc12 .
0.22

Try the compound Cc1nn(CNc2ccc(F)c(Cl)c2)c(=S)n1/N=C/c1ccc(-c2ccc(Cl)cc2Cl)o1
1.54

And the next one, C[C@@]12CC[C@@H](O)C[C@@H]1CC[C@H]1[C@H]2CC[C@@]2(C)[C@H](c3ccc(=O)oc3)CC[C@@]12O ?
-1.86

Queued: COc1ccc(N=Nc2ccc(O)c(=O)cc2)cc1
1.06

Thanks! And CCCCCCCCCN=C(N)c1ccc(N2CCN(c3ccc(C(N)=NCCCCCCCCC)cc3)CC2)cc1 ?
0.65

What about COc1cccc(C(=O)NNc2nc(Cl)nc(N3CCN(C(c4ccccc4)c4ccccc4)CC3)n2)c1 ?
0.63

Then this compound: COc1ccc2c(O)c1-c1c(OC)ccc(c1O)SSc1ccc(OC)c(c1O)-c1c(OC)ccc(c1O)SS2
1.84

Next compound up: COc1ccc(/C(C)=C2\CCCN(Cc3ccccc3)C2)cc1
1.55

---

# key: entry, value: TGI
tested on: OVCAR-3 ovarian; experiment: NCI tumour cell line growth inhibition, 48 h

# example entries with known answers
Compound	TGI
COc1ccc(-c2cc(=O)c3c(OC)c4ccoc4c(/C=C/C=O)c3o2)cc1	25.3 µM
C[C@@]12CC[C@@H](O)C[C@@H]1CC[C@H]1[C@H]2CC[C@@]2(C)[C@H](c3ccc(=O)oc3)CC[C@@]12O	0.0268 µM
COC(=O)c1cc(/C=C/C(=O)Cc2ccccc2)cn1S(=O)(=O)c1ccccc1	> 100 µM
N#CCCC(C#N)(C#N)CCC#N	> 100 µM
COc1cccc(C(=O)NNc2nc(Cl)nc(N3CCN(C(c4ccccc4)c4ccccc4)CC3)n2)c1	3.28 µM
CC(=O)OC(COc1ccc2c(c1)[n+]([O-])nc(N)[n+]2[O-])CN1CCCCC1 (stereo not given)	38 µM

Query: TGI; subject: CCc1ccc(Oc2c(-c3ccc(OCCc4cccc(C(F)(F)F)c4)cc3O)n[nH]c2C(F)(F)F)cc1
4.66 µM

How about COC(=O)C1C(C(=O)O)C2(c3ccccc3)C(=O)C1(c1ccccc1)C(c1ccc(OC)cc1)=C2c1ccc(OC)cc1 (stereo not given) ?
41.2 µM

Try this compound too: c1ccc2c(c1)CCN1CCc3ccccc3C1C2 (stereo not given)
> 100 µM

Could you do the same for CC(=O)N1C(c2[nH]c3ccccc3c2Cc2ccccc2)CCN1c1ccccc1 (stereo not given) , please?
> 10 µM

# repeat for CC(C)N(C(C)C)S(=O)(=O)CC12CCC(C/C1=N\O)C2 (stereo not given)
> 100 µM

Nc1ccc(Oc2ccc(C34CC5C6CC7(c8ccc(Oc9ccc(N)cc9)cc8)CC5C(C3)C(C7)C6C4)cc2)cc1 , same question.
> 100 µM

Same lookup for CCOC(=O)c1ccc(N=C2Sc3nc4ccccc4n3C2=Nc2ccc(C(=O)OCC)cc2)cc1 , please.
53.4 µM

Now the compound Nc1nc(N)c2cc(S(=O)(=O)c3ccc4ccccc4c3)ccc2n1
> 100 µM

Next record, please: COc1ccc(/C=C2/SC(=Nc3ccccc3)N(NC(=O)Cc3ccccc3)C2=O)cc1
> 100 µM

Ok, now CCOC(=O)/C(C1=NCCN1C)=C(\O)c1ccccc1
> 100 µM

---

test system: RPMI-8226 leukemia; test: NCI tumour cell line growth inhibition, 48 h; in the data active = GI50 below about 0.43 µM; inactive = the rest
Permitted responses: 1 for active, -1 for inactive

Below are worked cases with known answers.
Compound	Label
CC(C)[C@@]12C[C@@H](OC(=O)COC(=O)c3ccccc3)[C@@](C)(O1)[C@@H]1CC[C@@H](C)[C@H]1[C@@H]2OC(=O)/C=C/c1ccccc1	-1
CC(C)C[C@H](NC(=O)[C@@H](Cc1ccccc1)n1ccc(Nc2ccccc2)cc1=O)B(O)O	1
C[n+]1cccc(NC(=O)c2ccc3ccc4ccc(C(=O)Nc5ccc[n+](C)c5)nc4c3n2)c1	-1
CCOc1cc(Cl)c(C(C)NC(=O)c2cccc(OC)c2)cc1OCC (stereo not given)	-1
COc1ccc2c(c1)OCC1c3cc(OC)c4ccccc4c3OC21 (stereo not given)	-1

How did this test come out for Nc1nc2ccc(CNc3ccc(C(=O)NC(CC(=O)O)C(=O)O)cc3)cc2c(=O)[nH]1 (stereo not given) ?
-1

Another compound to check: COc1cc(/C=C2\CCC/C(=C\c3cc(CN4CCCC4)c(O)c(OC)c3)C2=O)cc(CN2CCCC2)c1O
-1

Another compound to look at: COc1cc(/C=C2\CC3C4CCC5=CC(=O)CC[C@]5(C)C4CC[C@]3(C)C2=O)ccc1OCCN1CCCC1 (stereo not given in full)
1

And CS(=O)(=O)N1CCC(Nc2ncc(C(=O)c3c(F)cccc3F)c(N)n2)CC1 ?
-1

Follow-up entry: CC(=O)[O-].CC(=O)[O-].O=C([CH-]C(=O)c1ccccc1)c1ccccc1.[Nd+3].[OH3+]
-1

Follow-up entry: Cc1ccc2ncnc(N(C)C3CCCCC3)c2c1
-1

One more compound: COc1ccc(OC)c(C2=C(c3cn(C)c4ccccc34)C(=O)NC2=O)c1
-1

Similarly, COc1ccc(C2=C(c3ccccc3)C(=O)N3CCCC3C2)cc1 (stereo not given) ?
1

Another: NC(=O)c1c[nH]c2ncnc(N)c12
-1

What do you have for CC(=O)Oc1ccc(C2OC(c3ccc4ccccc4c3OC(C)=O)=NN2C(C)=O)c(OC(C)=O)c1 (stereo not given) ?
-1

Then this compound: COc1ccc(-c2cc(=O)c3c(OC)c4ccoc4c(/C=C/C=O)c3o2)cc1
-1

Also Cc1ccc(C2=NN(c3ccc(S(=O)(=O)NC(=O)NCc4ccccc4)cc3)C(c3ccc(N(C)C)cc3)C2)c(C)c1 (stereo not given) ?
-1

Thanks! And O=C(Cc1cc(O)ccc1O)NO ?
-1

And for COc1ccc(-c2nc3sccn3c2-c2ccnc(NCCNS(=O)(=O)c3ccc(C(F)(F)F)cc3)n2)cc1 ?
-1

Same read-out for CO/N=C(/C)COc1ccc2c(c1)oc(=O)c1cc(OC)ccc12 ?
-1
